Give IC50 for every item shown.
# assayed_system: αvβ5 protein (Homo sapiens, UniProt P06756+P18084)
# Construct: purchased CHEMICON Corp. CC1023
# Sequence (P06756 31-889 limits assumed): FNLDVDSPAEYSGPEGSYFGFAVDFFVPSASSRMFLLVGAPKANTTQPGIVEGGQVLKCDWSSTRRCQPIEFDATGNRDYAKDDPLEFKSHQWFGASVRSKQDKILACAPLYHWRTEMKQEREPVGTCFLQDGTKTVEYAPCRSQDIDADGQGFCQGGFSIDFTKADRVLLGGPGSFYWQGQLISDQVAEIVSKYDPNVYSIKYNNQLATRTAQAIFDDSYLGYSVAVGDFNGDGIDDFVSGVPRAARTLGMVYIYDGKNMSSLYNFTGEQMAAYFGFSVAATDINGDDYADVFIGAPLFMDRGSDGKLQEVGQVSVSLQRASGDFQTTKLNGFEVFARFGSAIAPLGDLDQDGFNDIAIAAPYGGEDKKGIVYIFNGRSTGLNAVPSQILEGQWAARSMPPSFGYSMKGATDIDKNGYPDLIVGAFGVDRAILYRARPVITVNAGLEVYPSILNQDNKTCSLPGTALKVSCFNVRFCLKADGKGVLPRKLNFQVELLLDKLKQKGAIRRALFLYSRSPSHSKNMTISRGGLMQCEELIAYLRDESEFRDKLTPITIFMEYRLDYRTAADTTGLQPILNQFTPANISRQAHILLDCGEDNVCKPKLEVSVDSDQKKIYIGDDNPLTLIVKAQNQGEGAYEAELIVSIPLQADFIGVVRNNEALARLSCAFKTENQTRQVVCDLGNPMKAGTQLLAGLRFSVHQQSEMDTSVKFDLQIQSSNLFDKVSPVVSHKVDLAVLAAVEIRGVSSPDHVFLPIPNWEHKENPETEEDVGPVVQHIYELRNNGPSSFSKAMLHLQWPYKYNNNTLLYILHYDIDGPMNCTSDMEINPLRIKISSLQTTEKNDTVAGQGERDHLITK
# Sequence (P06756 891-1048 partner limits assumed): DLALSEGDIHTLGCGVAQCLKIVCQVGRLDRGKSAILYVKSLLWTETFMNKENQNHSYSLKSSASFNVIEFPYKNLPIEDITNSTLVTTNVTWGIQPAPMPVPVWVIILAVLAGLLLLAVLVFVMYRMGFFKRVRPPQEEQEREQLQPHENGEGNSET
# Sequence (P18084 24-799): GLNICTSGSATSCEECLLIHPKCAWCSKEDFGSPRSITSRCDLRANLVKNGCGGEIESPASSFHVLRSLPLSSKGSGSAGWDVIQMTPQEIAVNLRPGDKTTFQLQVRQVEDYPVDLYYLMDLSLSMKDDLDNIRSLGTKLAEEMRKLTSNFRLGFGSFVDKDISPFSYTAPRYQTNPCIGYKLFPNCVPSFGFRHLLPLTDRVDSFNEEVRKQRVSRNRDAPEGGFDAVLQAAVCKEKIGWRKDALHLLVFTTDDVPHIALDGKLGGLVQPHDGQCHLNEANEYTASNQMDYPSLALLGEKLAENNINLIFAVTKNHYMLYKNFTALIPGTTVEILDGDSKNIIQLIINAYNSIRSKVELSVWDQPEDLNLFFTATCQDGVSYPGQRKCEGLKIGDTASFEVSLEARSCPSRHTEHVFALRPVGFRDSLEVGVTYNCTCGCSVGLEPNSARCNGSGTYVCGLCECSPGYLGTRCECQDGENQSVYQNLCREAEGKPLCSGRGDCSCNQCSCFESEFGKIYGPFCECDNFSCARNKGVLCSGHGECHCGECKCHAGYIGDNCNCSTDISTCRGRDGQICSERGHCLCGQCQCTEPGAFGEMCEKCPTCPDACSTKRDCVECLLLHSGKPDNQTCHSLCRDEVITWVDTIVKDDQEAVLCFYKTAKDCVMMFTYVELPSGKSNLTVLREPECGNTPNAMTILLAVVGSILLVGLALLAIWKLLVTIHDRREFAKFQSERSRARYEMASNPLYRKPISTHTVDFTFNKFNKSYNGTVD
# test_description: αvβ5 protein binding test (Biotin-Echistatin plate assay)
# assay_setup: inhibition of binding between Echistatin and αvβ5 protein
Numbers only, in nM.

// IC50 lookup, key: O=C(O)C[C@@H]1Cc2ccc(OCCCNc3ccccn3)cc2CN(CC(F)(F)F)C1=O [Compund B, reference compound] 1.3

Now for the compound whose IC50 we want.
// IC50 lookup, key: `O=C(O)C[C@@H]1Cc2ccc(OCCc3cn4c(n3)NCCC4)cc2CN(CC(F)(F)F)C1=O` 0.2
